# measurementTarget: High affinity nerve growth factor receptor (Homo sapiens, UniProt P04629)
# Sequence (P04629 33-796 limits assumed): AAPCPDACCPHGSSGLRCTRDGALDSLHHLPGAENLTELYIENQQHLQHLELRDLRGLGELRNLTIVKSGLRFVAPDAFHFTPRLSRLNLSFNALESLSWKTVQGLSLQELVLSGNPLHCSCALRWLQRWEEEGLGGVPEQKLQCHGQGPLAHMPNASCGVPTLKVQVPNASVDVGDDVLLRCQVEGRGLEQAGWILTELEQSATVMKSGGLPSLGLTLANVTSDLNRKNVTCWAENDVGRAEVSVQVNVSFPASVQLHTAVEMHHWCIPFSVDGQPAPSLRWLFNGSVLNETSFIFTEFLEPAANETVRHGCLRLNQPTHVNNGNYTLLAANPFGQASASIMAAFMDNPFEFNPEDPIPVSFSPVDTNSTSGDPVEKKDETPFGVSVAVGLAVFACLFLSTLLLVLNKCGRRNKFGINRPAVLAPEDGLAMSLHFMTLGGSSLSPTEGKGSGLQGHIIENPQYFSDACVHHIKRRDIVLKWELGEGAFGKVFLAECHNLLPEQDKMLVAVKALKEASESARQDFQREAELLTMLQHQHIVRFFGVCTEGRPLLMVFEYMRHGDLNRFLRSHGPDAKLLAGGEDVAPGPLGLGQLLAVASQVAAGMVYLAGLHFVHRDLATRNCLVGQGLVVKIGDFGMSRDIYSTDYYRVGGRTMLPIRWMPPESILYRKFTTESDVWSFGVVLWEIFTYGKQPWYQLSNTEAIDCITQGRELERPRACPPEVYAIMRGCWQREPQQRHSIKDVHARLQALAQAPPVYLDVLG
# assayInfo: Inhibition of human N- terminal GST-tagged TrkA cytoplasmic domain (436 to 790 residues) expressed in baculovirus infected sf21 cells at 1 uM using biotinylated peptide substrate incubated for 15 mins followed by addition of ATP measured after 30 mins by TR-FRET assay relative to control
measurementName: inhibition (%)
Answer with a number only, understood to be in %.

Previously resolved entries follow.
| smi | inhibition [%] |
| --- | --- |
| Cc1ccc(/C=N/NC(=O)c2ccccc2O)cc1 | 3.7 |
| O=C(N/N=C/c1ccc(O)c(O)c1O)c1ccccc1O | 90.9 |
| O=C(N/N=C/c1ccc(O)cc1O)c1ccccc1O | 92.4 |

Exercise: Need inhibition, item `O=C(N/N=C/c1ccc(O)c(O)c1)c1ccccc1O`
Key: 92.9

Exercise: Need inhibition, item `O=C(N/N=C/c1ccc(Cl)cc1)c1ccccc1O`
Key: 6.92

Exercise: Need inhibition, item `O=C(N/N=C/c1ccc(O)cc1)c1ccccc1O`
Key: 20.6

Exercise: Need inhibition, item `COc1ccc(/C=N/NC(=O)c2ccccc2O)c(OC)c1`
Key: 7.61

---

IC50 reference
# assayInfo: Cytotoxicity against human SK-MEL-2 cells assessed as reduction in cell proliferation measured after 48 hrs by SRB assay
# Type: functional, cell-based
# assaySetup: SK-MEL-2, 48 h
Answer with a number only, understood to be in µM.

| smi | measurementName | measuredNumber |
| --- | --- | --- |
| COc1ccc(/C=N/NC(=O)c2ccccc2O)c(OC)c1 | IC50 | 19.6 |
| O=C(N/N=C/c1ccccc1[N+](=O)[O-])c1ccccc1O | IC50 | 19.4 |
| O=C(N/N=C/c1ccc(O)c(O)c1O)c1ccccc1O | IC50 | 1.84 |
| COc1cccc2c1C(=O)c1c(O)c3c(c(O)c1C2=O)C[C@@](O)(C(=O)CO)C[C@@H]3O[C@H]1C[C@H](N)[C@H](O)[C@H](C)O1 | IC50 | 0.001 |
| CN(C)c1ccc(/C=N/NC(=O)c2ccccc2O)cc1 | IC50 | 19.3 |
| O=C(N/N=C/c1ccc([N+](=O)[O-])cc1)c1ccccc1O | IC50 | 9.34 |

Exercise: Need IC50, item `O=C(N/N=C/c1ccc(O)c(O)c1)c1ccccc1O`
Key: 8.86

Exercise: Need IC50, item `O=C(N/N=C/c1ccccc1)c1ccccc1O`
Key: 9.77

Exercise: Need IC50, item `O=C(N/N=C/c1ccc(O)cc1)c1ccccc1O`
Key: 5.46

Exercise: Need IC50, item `Cc1ccc(/C=N/NC(=O)c2ccccc2O)cc1`
Key: 13.1

Exercise: Need IC50, item `COc1ccc(/C=N/NC(=O)c2ccccc2O)cc1`
Key: 15.2

Exercise: Need IC50, item `O=C(N/N=C/c1ccc(O)cc1O)c1ccccc1O`
Key: 1.43

Exercise: Need IC50, item `O=C(N/N=C/c1ccc(Cl)cc1)c1ccccc1O`
Key: 14.3

---

# assayInfo: Cytotoxicity against human HCT15 cells assessed as reduction in cell proliferation measured after 48 hrs by SRB assay
# Assay type: functional, cell-based
# assaySetup: HCT-15, 48 h
Returns: string. Value is 1.0 if measured IC50 is below 20 µM, and 0.0 if it is greater than or equal to it.

# count of solved cases: 5
| smi | assignedCategory |
| --- | --- |
| COc1cccc2c1C(=O)c1c(O)c3c(c(O)c1C2=O)C[C@@](O)(C(=O)CO)C[C@@H]3O[C@H]1C[C@H](N)[C@H](O)[C@H](C)O1 | 1.0 |
| O=C(N/N=C/c1ccc(O)c(O)c1O)c1ccccc1O | 1.0 |
| CN(C)c1ccc(/C=N/NC(=O)c2ccccc2O)cc1 | 0.0 |
| O=C(N/N=C/c1ccc(Cl)cc1)c1ccccc1O | 0.0 |
| O=C(N/N=C/c1ccc(O)cc1)c1ccccc1O | 1.0 |

Exercise: State whether 20 µM exceeds IC50 recorded for `O=C(N/N=C/c1ccccc1)c1ccccc1O` .
Key: 0.0

Exercise: State whether 20 µM exceeds IC50 recorded for `O=C(N/N=C/c1ccc(O)c(O)c1)c1ccccc1O` .
Key: 1.0

Exercise: State whether 20 µM exceeds IC50 recorded for `O=C(N/N=C/c1ccc(O)cc1O)c1ccccc1O` .
Key: 1.0

Exercise: State whether 20 µM exceeds IC50 recorded for `Cc1ccc(/C=N/NC(=O)c2ccccc2O)cc1` .
Key: 0.0

Exercise: State whether 20 µM exceeds IC50 recorded for `O=C(N/N=C/c1ccc([N+](=O)[O-])cc1)c1ccccc1O` .
Key: 0.0

Exercise: State whether 20 µM exceeds IC50 recorded for `O=C(N/N=C/c1ccccc1[N+](=O)[O-])c1ccccc1O` .
Key: 0.0

Exercise: State whether 20 µM exceeds IC50 recorded for `COc1ccc(/C=N/NC(=O)c2ccccc2O)c(OC)c1` .
Key: 0.0

Exercise: State whether 20 µM exceeds IC50 recorded for `COc1ccc(/C=N/NC(=O)c2ccccc2O)cc1` .
Key: 0.0
